This collection of values is drawn from ChEMBL document CHEMBL5291721.

Known AC50 of a selection of compounds
- EXPERIMENTAL_TARGET: Prostaglandin G/H synthase 1 (Homo sapiens); further: assay procedure not described here
- Sequence (P23219 whole entry): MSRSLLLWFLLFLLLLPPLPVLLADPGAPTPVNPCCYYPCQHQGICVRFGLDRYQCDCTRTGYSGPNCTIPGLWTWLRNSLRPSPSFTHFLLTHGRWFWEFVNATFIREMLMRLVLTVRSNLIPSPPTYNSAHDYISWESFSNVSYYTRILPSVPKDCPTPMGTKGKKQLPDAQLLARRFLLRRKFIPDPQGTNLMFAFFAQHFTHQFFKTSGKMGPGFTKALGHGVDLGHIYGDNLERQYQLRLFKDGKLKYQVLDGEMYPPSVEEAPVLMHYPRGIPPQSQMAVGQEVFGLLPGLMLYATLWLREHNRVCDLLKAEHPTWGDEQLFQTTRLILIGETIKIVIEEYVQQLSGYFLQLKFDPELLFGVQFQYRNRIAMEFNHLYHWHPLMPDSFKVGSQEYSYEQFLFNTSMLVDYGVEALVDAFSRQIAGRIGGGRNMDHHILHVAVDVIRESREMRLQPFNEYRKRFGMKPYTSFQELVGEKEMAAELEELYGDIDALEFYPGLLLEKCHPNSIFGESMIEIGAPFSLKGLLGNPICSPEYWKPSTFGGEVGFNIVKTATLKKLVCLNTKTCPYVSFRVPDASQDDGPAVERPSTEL
- Assay type: functional

Please review the entries below; each comes with its answer.
Cc1cc(C#N)cc(C)c1Oc1nc(Nc2ccc(C#N)cc2)nc(N)c1Br [ETRAVIRINE]; 20.4 µM
CC1(C)NC(=O)N(c2ccc([N+](=O)[O-])c(C(F)(F)F)c2)C1=O [NILUTAMIDE]; > 30 µM
CC(=O)Oc1c(C)c(C)c2c(c1C)CC[C@@](C)(CCC[C@H](C)CCC[C@H](C)CCCC(C)C)O2; > 30 µM
COC1=C(OC)C(=O)C(C/C=C(\C)CC/C=C(\C)CC/C=C(\C)CC/C=C(\C)CC/C=C(\C)CC/C=C(\C)CC/C=C(\C)CC/C=C(\C)CC/C=C(\C)CCC=C(C)C)=C(C)C1=O [UBIDECARENONE]; > 30 µM
NC1CCN(c2c(F)cc3c(=O)c(C(=O)O)cn(C4CC4)c3c2Cl)C1 (configuration not stated) [CLINAFLOXACIN]; > 30 µM
NCC(CC(=O)O)c1ccc(Cl)cc1 (configuration not stated) [BACLOFEN]; > 30 µM
CCN(CC)CCOC(=O)C(c1ccccc1)C1CCCCC1 (configuration not stated) [DROFENINE]; > 30 µM
CCC(=O)NCC[C@@H]1CCc2ccc3c(c21)CCO3 [RAMELTEON]; > 30 µM

Data request: Test system Prostaglandin G/H synthase 1 (Homo sapiens); read-out AC50; what value for COc1cc2c3cc1Oc1cc(ccc1O)C[C@@H]1c4c(cc(OC)c(O)c4Oc4ccc(cc4)C[C@@H]3N(C)CC2)CC[N+]1(C)C [TUBOCURARINE] ?; further: assay procedure not described here
Data returned: > 30 µM

Data request: Find the measured AC50: item O=C(Cc1ccc(-c2ccccc2)cc1)Nc1ccccn1 [DIFENPIRAMIDE] , target or system Prostaglandin G/H synthase 1 (Homo sapiens). Further: assay procedure not described here.
Data returned: > 30 µM

Data request: Given the entry C[C@]12CC[C@@H]3c4ccc(O)cc4CC[C@H]3[C@@H]1C[C@@H](O)[C@@H]2O [ESTRIOL] , what AC50 was observed with Prostaglandin G/H synthase 1 (Homo sapiens)?
Data returned: 12 µM

Data request: Give the reported AC50 for NC(=O)C[C@H](N)C(=O)O [ASPARAGINE] (system: Prostaglandin G/H synthase 1 (Homo sapiens)). Further: assay procedure not described here.
Data returned: > 30 µM

Data request: Value wanted: AC50 (Prostaglandin G/H synthase 1 (Homo sapiens)) of entry CCC(C)(C)c1ccc(CC(C)CN2C[C@@H](C)O[C@@H](C)C2)cc1 (some centres not stated) [AMOROLFINE]
Data returned: > 30 µM

###

- EXPERIMENTAL_TARGET: Histamine H2 receptor (Homo sapiens, UniProt P25021); further: assay procedure not described here
- Sequence (P25021 whole entry): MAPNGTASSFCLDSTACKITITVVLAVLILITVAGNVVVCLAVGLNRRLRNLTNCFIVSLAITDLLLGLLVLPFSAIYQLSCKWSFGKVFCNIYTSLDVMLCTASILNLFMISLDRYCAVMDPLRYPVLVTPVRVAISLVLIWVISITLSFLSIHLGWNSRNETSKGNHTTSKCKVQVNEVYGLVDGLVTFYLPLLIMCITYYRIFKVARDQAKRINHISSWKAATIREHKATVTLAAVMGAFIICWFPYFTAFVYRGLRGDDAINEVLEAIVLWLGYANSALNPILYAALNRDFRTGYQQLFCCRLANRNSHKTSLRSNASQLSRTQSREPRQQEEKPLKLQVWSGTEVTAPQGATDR
Items are presented alongside their recorded AC50.

Some compounds with recorded AC50:
CS(=O)(=O)c1ccc(C2=C(c3ccccc3)C(=O)OC2)cc1 [ROFECOXIB]; > 10 µM
Cn1nnc2c(C(N)=O)ncn2c1=O [TEMOZOLOMIDE]; > 10 µM
CC(C)C[C@H]1C(=O)N2CCC[C@H]2[C@]2(O)O[C@](NC(=O)[C@@H]3C=C4c5cccc6[nH]c(Br)c(c56)C[C@H]4N(C)C3)(C(C)C)C(=O)N12 [BROMOCRIPTINE]; 1.69 µM

Data request: API: value(readout= AC50, system= Histamine H2 receptor (Homo sapiens, UniProt P25021), query= NCC(CC(=O)O)c1ccc(Cl)cc1 (configuration not stated) [BACLOFEN] ); further: assay procedure not described here
Data returned: > 10 µM

Data request: Write down the reported AC50 of CN1CCN(CC/C=C2/c3ccccc3Sc3ccc(S(=O)(=O)N(C)C)cc32)CC1 [THIOTHIXENE] , test system: Histamine H2 receptor (Homo sapiens, UniProt P25021). Further: assay procedure not described here.
Data returned: 0.145 µM

Data request: Item: Cc1ccc(-c2cc(C(F)(F)F)nn2-c2ccc(S(N)(=O)=O)cc2)cc1 [CELECOXIB] Test system: Histamine H2 receptor (Homo sapiens, UniProt P25021) Read-out: AC50 Value: ?; further: assay procedure not described here
Data returned: > 10 µM

Data request: Provide value of AC50 for this record tested with Histamine H2 receptor (Homo sapiens, UniProt P25021): CN1C(=O)C(O)N=C(c2ccccc2)c2cc(Cl)ccc21 (configuration not stated) [TEMAZEPAM]
Data returned: > 10 µM

Data request: Lookup: AC50 / Histamine H2 receptor (Homo sapiens, UniProt P25021) / CC[C@H]1OC(=O)[C@H](C)[C@@H](O[C@H]2C[C@@](C)(OC)[C@@H](O)[C@H](C)O2)[C@H](C)[C@@H](O[C@@H]2O[C@H](C)C[C@H](N(C)C)[C@H]2O)[C@](C)(O)C[C@@H](C)CN(C)[C@H](C)[C@@H](O)[C@]1(C)O [AZITHROMYCIN]
Data returned: > 10 µM

Data request: # get_value(readout= AC50, system= Histamine H2 receptor (Homo sapiens, UniProt P25021)) for C[C@]12CCC(=O)C=C1CC[C@@H]1[C@@H]2[C@@H](O)C[C@@]2(C)[C@H]1CC[C@]2(O)C(=O)CO [HYDROCORTISONE]; further: assay procedure not described here
Data returned: > 10 µM

###

Heads up, these compounds all have AC50 values measured for Adenosine receptor A1 (Homo sapiens).

Some compounds with known AC50 results, for comparison:
C/C(O)=C(\C#N)C(=O)Nc1ccc(C(F)(F)F)cc1 [TERIFLUNOMIDE]; > 30 µM
CC(C)Cn1cnc2c(N)nc3ccccc3c21; > 10 µM
CCCN(CCC)C(=O)C(CCC(=O)O)NC(=O)c1ccccc1 (stereo not given) [PROGLUMIDE]; > 30 µM
CCCCc1ncc(/C=C(\Cc2cccs2)C(=O)O)n1Cc1ccc(C(=O)O)cc1; > 10 µM
COc1ccc(CCN(C)CCCC(C#N)(c2cc(OC)c(OC)c(OC)c2)C(C)C)cc1OC (stereo not given); > 30 µM

Data request: Lab note: need AC50 with Adenosine receptor A1 (Homo sapiens) for entry O=C(O[C@H]1C[C@H]2CC[C@@H](C1)[N+]21CCCC1)C(O)(c1ccccc1)c1ccccc1 , please look it up.
Sequence (P30542 whole entry): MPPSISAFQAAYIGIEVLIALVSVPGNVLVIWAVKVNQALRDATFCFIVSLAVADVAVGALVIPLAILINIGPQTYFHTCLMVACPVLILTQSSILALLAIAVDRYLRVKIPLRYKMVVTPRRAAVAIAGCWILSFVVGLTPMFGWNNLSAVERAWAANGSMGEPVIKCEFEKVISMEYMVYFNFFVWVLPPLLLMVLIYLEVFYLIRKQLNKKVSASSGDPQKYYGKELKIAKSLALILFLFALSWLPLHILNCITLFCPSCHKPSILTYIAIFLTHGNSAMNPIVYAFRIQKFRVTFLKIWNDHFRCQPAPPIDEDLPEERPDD
Data returned: > 30 µM

Data request: Request: AC50, test system Adenosine receptor A1 (Homo sapiens), entry CC(CC(c1ccccc1)c1ccccc1)NC(C)(C)C (stereo not given); further: assay procedure not described here
Data returned: > 30 µM

Data request: Query the reported AC50 for Adenosine receptor A1 (Homo sapiens); item: Clc1ccc(CCCOCCCN2CCCCC2)cc1
Data returned: > 30 µM

Data request: API: value(readout=AC50, system=Adenosine receptor A1 (Homo sapiens)) for record CC=CC(=O)N(CC)c1ccccc1C; further: assay procedure not described here
Data returned: > 10 µM

Data request: Hello, I am looking for reported AC50 with Adenosine receptor A1 (Homo sapiens) for CC[C@@H](C(N)=O)N1CCCC1=O . Could you help?
Data returned: > 30 µM

###

- EXPERIMENTAL_TARGET: UniProtKB P41595
- Sequence (P41595 whole entry): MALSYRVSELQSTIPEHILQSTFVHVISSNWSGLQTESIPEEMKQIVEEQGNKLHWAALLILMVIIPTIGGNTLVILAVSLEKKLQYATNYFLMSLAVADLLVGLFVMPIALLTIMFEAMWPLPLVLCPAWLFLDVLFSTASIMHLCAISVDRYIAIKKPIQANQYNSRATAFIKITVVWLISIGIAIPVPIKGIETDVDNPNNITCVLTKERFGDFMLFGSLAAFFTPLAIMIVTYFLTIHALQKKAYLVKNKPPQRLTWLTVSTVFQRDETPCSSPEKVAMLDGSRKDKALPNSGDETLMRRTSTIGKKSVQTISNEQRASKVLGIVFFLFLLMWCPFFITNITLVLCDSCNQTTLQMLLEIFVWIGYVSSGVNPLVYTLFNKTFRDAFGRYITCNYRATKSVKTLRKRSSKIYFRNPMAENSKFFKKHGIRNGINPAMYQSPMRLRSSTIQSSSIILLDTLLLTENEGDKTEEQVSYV
- Assay type: functional, cell-based
ENDPOINT_NAME: AC50

COCCCN1CCC(NC(=O)c2cc(Cl)c(N)c3c2OCC3)CC1 [PRUCALOPRIDE]; > 30 µM

Data request: Reported AC50, compound Cc1c(OCC(F)(F)F)ccnc1C[S+]([O-])c1nc2ccccc2[nH]1 (stereo unspecified) : ____
Data returned: > 10 µM

Data request: What measured AC50 goes with CCOC(=O)OC(C)OC1=C(C(=O)Nc2ccccn2)N(C)S(=O)(=O)c2ccccc21 (stereo unspecified) ?
Data returned: 10 µM

Data request: Could you tell me which AC50 is on file for Cc1ccc(-n2nccn2)c(C(=O)N2CCN(c3nc4cc(Cl)ccc4o3)CC[C@H]2C)c1 ?
Data returned: > 30 µM

Data request: Could you tell me which AC50 is on file for COc1ccc2c3c1O[C@H]1[C@@H](O)C=C[C@H]4[C@@H](C2)N(C)CC[C@@]341 ?
Data returned: > 10 µM

Data request: Data request, read-out AC50, for C[C@]1(O)CC[C@H]2[C@@H]3CCC4=CC(=O)CC[C@]4(C)[C@@]3(F)[C@@H](O)C[C@@]21C
Data returned: > 10 µM

Data request: For CCC1(CC)C(=O)NCC(C)C1=O (stereo unspecified) , what is its reported AC50?
Data returned: > 30 µM

Data request: Param item = CN(C)CCc1c[nH]c2ccc(C[C@H]3COC(=O)N3)cc12 ; retrieve measured AC50.
Data returned: > 30 µM

Data request: Item COC1=C(OC)C(=O)C(C/C=C(\C)CC/C=C(\C)CC/C=C(\C)CC/C=C(\C)CC/C=C(\C)CC/C=C(\C)CC/C=C(\C)CC/C=C(\C)CC/C=C(\C)CCC=C(C)C)=C(C)C1=O has what recorded AC50?
Data returned: > 30 µM

Data request: Fill blank: measured AC50 of the compound C[C@]12CC[C@H]3[C@@H](CCC4=CC(=O)CC[C@@]43C)[C@@H]1CC[C@@H]2O is ____.
Data returned: > 10 µM
